In this section we review reported EC50 values for a set of binders.
# assaySystem: T1, human CCR2 (CC-Chemokine Receptor 2) (human, UniProt P41597 1-374)
# T1 construct: whole, on cells; also called huCCR2; CHO-huCCR2
# T1 sequence (P41597 whole entry): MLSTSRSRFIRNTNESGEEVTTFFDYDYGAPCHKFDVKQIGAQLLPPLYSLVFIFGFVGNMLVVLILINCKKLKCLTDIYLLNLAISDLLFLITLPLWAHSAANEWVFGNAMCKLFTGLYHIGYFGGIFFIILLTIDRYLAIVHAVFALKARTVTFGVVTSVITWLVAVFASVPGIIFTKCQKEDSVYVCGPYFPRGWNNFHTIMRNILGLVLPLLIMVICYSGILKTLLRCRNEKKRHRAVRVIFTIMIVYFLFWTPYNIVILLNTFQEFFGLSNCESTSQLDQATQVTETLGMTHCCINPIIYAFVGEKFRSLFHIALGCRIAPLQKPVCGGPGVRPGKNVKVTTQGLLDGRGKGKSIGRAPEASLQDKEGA
# assayInfo: flow cytometry on CHO-huCCR2 cells, PE anti-human IgG
Use nM as the unit, but write only the number.

Use the examples below as a reference point.
Answer with reported EC50 of D1-7/LO (antibody, V domains shown, tested as IgG. '/LO' not explained) VH: QVQLVQSGAEVKKPGASVKVSCKASGYTFTGYYMHWVRQAPGQGLEWMGWINPNSGVTKYAQKFQGRVTMTRDTSTSTVYMELSSLRSEDTAVYYCATGSGGGTMDVWGEGTLVTVSS VL: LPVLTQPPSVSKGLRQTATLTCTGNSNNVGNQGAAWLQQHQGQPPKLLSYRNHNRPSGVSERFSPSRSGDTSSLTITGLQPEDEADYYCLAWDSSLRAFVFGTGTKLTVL
0.08

Answer with reported EC50 of D1 (antibody, human IgG1, V domains shown, also called CCR2 D1 IgG; anti-CCR2 D1 antibody) VH: EVQLVQSGAEVKKPGASVKVSCKASGYTFTGYHMHWVRQAPGQGLEWMGWINPNSGVTKYAQKFQGRVTMTRDTSINTAYMELSRLRFDDTDVYYCATGGFGYWGEGTLVTVSS VL: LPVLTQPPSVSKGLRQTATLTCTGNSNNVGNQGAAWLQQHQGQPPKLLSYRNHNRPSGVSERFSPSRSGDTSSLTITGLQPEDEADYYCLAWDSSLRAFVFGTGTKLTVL
0.17

New cases:
Answer with reported EC50 of 54A9 (antibody, V domains shown, tested as IgG) VH: VQLVESGAEVKKPGASVKVSCKASGYTFSSHYMHWVRQAPGQGLEWMGIINPSGGSTIYAQKFQGRVTINADESTSTAYMELSSLGSDDTAVYYCARAAGGAVAGHGARFDYWGQGTLVTVSS VL: LPVLTQPASVSGSPGQSITISCTGTSSDVGGYNYVSWYQQHPGKAPKLMIYDVSNRPSGVSNRFSGSKSGNTASLTISGLQAEDEADYYCSSYRRSSTLVFGGGTKLTVL
0.53
